test system: ducksalad (Heteranthera limosa); assay: Test B flooded paddy test, ducksalad; assay type: in vivo; details: 250 g ai/ha, Flood, scale of 0 to 100 where 0 is no effect and 100 is complete control, visually evaluated after 10 to 14 days, read-out: Plant response rating, Ducksalad
Please go through the items and note down their pest or weed control at 250 g/ha.
Provide only the numeric value, understood in %.

Q: So what does the record say about pest or weed control at 250 g/ha for C#CCOC1CCN(c2cc(NS(=O)(=O)C(F)(F)F)c(C)cc2C)C1=O (centres unmarked) ?
Ans: 80

Q: So what does the record say about pest or weed control at 250 g/ha for Cc1cc(C)c(N(COC(=O)C(C)(C)C)S(=O)(=O)C(F)(F)F)cc1N1CCC(OC2CC2)C1=O (centres unmarked) ?
Ans: 95

Q: So what does the record say about pest or weed control at 250 g/ha for Cc1cc(C)c(N2CCC(OC3CCCC3)C2=O)cc1NS(=O)(=O)C(F)(F)F (centres unmarked) ?
Ans: 85

Q: So what does the record say about pest or weed control at 250 g/ha for Cc1cc(C)c(N(COC(=O)C(C)(C)C)S(=O)(=O)C(F)(F)F)cc1N1CCC(OC2CCC2)C1=O (centres unmarked) ?
Ans: 95

Q: So what does the record say about pest or weed control at 250 g/ha for Cc1cc(C)c(N2CCC(OC3CC3)C2=O)cc1NS(=O)(=O)C(F)(F)F (centres unmarked) ?
Ans: 98

Q: So what does the record say about pest or weed control at 250 g/ha for Cc1cc(C)c(N(COC(=O)C(C)(C)C)S(=O)(=O)C(F)(F)F)cc1N1CCC(OC2CCCC2)C1=O (centres unmarked) ?
Ans: 95

Q: So what does the record say about pest or weed control at 250 g/ha for C=CCOC1CCN(c2cc(NS(=O)(=O)C(F)(F)F)c(C)cc2C)C1=O (centres unmarked) ?
Ans: 75

Q: So what does the record say about pest or weed control at 250 g/ha for Cc1cc(C)c(N2CCC(OC3CCC3)C2=O)cc1NS(=O)(=O)C(F)(F)F (centres unmarked) ?
Ans: 100

###

test system: kochia (Bassia scoparia); assay: Test A preemergence, kochia; assay type: in vivo; details: pre-emergence, 240 h, 31 g ai/ha, 0 to 100 scale, 10 days, read-out: Plant response rating, Kochia
Measure name: pest or weed control at 31 g/ha (%)
Provide only the numeric value, understood in %.

Q: So what does the record say about pest or weed control at 31 g/ha for Cc1cc(C)c(N2CCC(OC3CC3)C2=O)cc1NS(=O)(=O)C(F)(F)F (centres unmarked) ?
Ans: 100

Q: So what does the record say about pest or weed control at 31 g/ha for Cc1cc(C)c(N(COC(=O)C(C)(C)C)S(=O)(=O)C(F)(F)F)cc1N1CCC(OC2CC2)C1=O (centres unmarked) ?
Ans: 60

Q: So what does the record say about pest or weed control at 31 g/ha for Cc1cc(C)c(N(COC(=O)C(C)(C)C)S(=O)(=O)C(F)(F)F)cc1N1CCC(OC2CCC2)C1=O (centres unmarked) ?
Ans: 0

Q: So what does the record say about pest or weed control at 31 g/ha for Cc1cc(C)c(N(COC(=O)C(C)(C)C)S(=O)(=O)C(F)(F)F)cc1N1CCC(OC2CCCC2)C1=O (centres unmarked) ?
Ans: 0

Q: So what does the record say about pest or weed control at 31 g/ha for Cc1cc(C)c(N2CCC(OC3CCCC3)C2=O)cc1NS(=O)(=O)C(F)(F)F (centres unmarked) ?
Ans: 30

Q: So what does the record say about pest or weed control at 31 g/ha for Cc1cc(C)c(N2CCC(OC3CCC3)C2=O)cc1NS(=O)(=O)C(F)(F)F (centres unmarked) ?
Ans: 70

Q: So what does the record say about pest or weed control at 31 g/ha for C#CCOC1CCN(c2cc(NS(=O)(=O)C(F)(F)F)c(C)cc2C)C1=O (centres unmarked) ?
Ans: 70

Q: So what does the record say about pest or weed control at 31 g/ha for C=CCOC1CCN(c2cc(NS(=O)(=O)C(F)(F)F)c(C)cc2C)C1=O (centres unmarked) ?
Ans: 50

###

tested on: pigweed, palmer (palmer amaranth, Amaranthus palmeri); assay: Test A postemergence, palmer amaranth; type: in vivo; details: 31 g ai/ha, 0 to 100 scale, 10 days
Measure name: Plant response rating, Pigweed, Palmer
Format: numeric value only, no unit, no commentary.

Q: So what does the record say about Plant response rating, Pigweed, Palmer for Cc1cc(C)c(N2CCC(OC3CCC3)C2=O)cc1NS(=O)(=O)C(F)(F)F (stereo not drawn) ?
Ans: 60

Q: So what does the record say about Plant response rating, Pigweed, Palmer for Cc1cc(C)c(N2CCC(OC3CC3)C2=O)cc1NS(=O)(=O)C(F)(F)F (stereo not drawn) ?
Ans: 40

Q: So what does the record say about Plant response rating, Pigweed, Palmer for Cc1cc(C)c(N2CCC(OC3CCCC3)C2=O)cc1NS(=O)(=O)C(F)(F)F (stereo not drawn) ?
Ans: 50

Q: So what does the record say about Plant response rating, Pigweed, Palmer for Cc1cc(C)c(N(COC(=O)C(C)(C)C)S(=O)(=O)C(F)(F)F)cc1N1CCC(OC2CCC2)C1=O (stereo not drawn) ?
Ans: 60

Q: So what does the record say about Plant response rating, Pigweed, Palmer for Cc1cc(C)c(N(COC(=O)C(C)(C)C)S(=O)(=O)C(F)(F)F)cc1N1CCC(OC2CC2)C1=O (stereo not drawn) ?
Ans: 30

Q: So what does the record say about Plant response rating, Pigweed, Palmer for Cc1cc(C)c(N(COC(=O)C(C)(C)C)S(=O)(=O)C(F)(F)F)cc1N1CCC(OC2CCCC2)C1=O (stereo not drawn) ?
Ans: 20

###

system: horseweed (Erigeron canadensis); assay: Test A postemergence, horseweed; format: in vivo; conditions: 125 g ai/ha, 0 to 100 scale, 10 days
From the text: […]
Please go through the items and note down their Plant response rating, Horseweed.
Format: numeric value only, no unit, no commentary.

Q: For horseweed (Erigeron canadensis), provide Plant response rating, Horseweed of Cc1cc(C)c(N2CCC(OC3CC3)C2=O)cc1NS(=O)(=O)C(F)(F)F (stereo not shown) [Compound 3] please.
Ans: 90

Q: For horseweed (Erigeron canadensis), provide Plant response rating, Horseweed of Cc1cc(C)c(N(COC(=O)C(C)(C)C)S(=O)(=O)C(F)(F)F)cc1N1CCC(OC2CC2)C1=O (stereo not shown) [Compound 7] please.
Ans: 90

Q: For horseweed (Erigeron canadensis), provide Plant response rating, Horseweed of Cc1cc(C)c(N2CCC(OC3CCC3)C2=O)cc1NS(=O)(=O)C(F)(F)F (stereo not shown) [Compound 4] please.
Ans: 100

Q: For horseweed (Erigeron canadensis), provide Plant response rating, Horseweed of Cc1cc(C)c(N(COC(=O)C(C)(C)C)S(=O)(=O)C(F)(F)F)cc1N1CCC(OC2CCC2)C1=O (stereo not shown) [Compound 8] please.
Ans: 90

###

system: corn (Zea mays); test: Test C postemergence, corn; assay type: in vivo; conditions: 31 g ai/ha Postemergence; visual injury, 0 to 100 scale (0 no effect, 100 complete control)
Class boundaries, taken from values of Corn plant response rating, are as follows: band 1 = under 20, band 2 = from 20 up to 60, band 3 = 60 and over

Q: Hi, small favor: classify Cc1c(N2CCC(OC3CCC3)C2=O)cc(N(C(=O)OCC(C)C)S(=O)(=O)C(F)(F)F)c(C)c1C (centres unmarked) by its Corn plant response rating when you get a moment.
Ans: band 1

Q: Hi, small favor: classify CC#CCOC1CCN(c2cc(NS(=O)(=O)C(F)(F)F)c(C)cc2C)C1=O (centres unmarked) by its Corn plant response rating when you get a moment.
Ans: band 3

Q: Hi, small favor: classify CO/N=C1\CCN(c2cc(NS(=O)(=O)C(F)(F)F)c(C)cc2C)C1=O by its Corn plant response rating when you get a moment.
Ans: band 3

Q: Hi, small favor: classify COC(=O)N(c1cc(N2CCC(OC3CC3)C2=O)c(C)cc1Cl)S(=O)(=O)C(F)(F)F (centres unmarked) by its Corn plant response rating when you get a moment.
Ans: band 3

Q: Hi, small favor: classify Cc1c(NS(=O)(=O)C(F)(F)F)cc(N2CCC(OCC3CCC3)C2=O)c(C)c1F (centres unmarked) by its Corn plant response rating when you get a moment.
Ans: band 1

Q: Hi, small favor: classify CCO/N=C1\CCN(c2cc(NS(=O)(=O)C(F)(F)F)c(C)cc2C)C1=O by its Corn plant response rating when you get a moment.
Ans: band 3

Q: Hi, small favor: classify Cc1cc(Cl)c(N(COC(=O)C(C)(C)C)S(=O)(=O)C(F)(F)F)cc1N1CCC(OC2CC2)C1=O (centres unmarked) by its Corn plant response rating when you get a moment.
Ans: band 3

Q: Hi, small favor: classify Cc1cc(C)c(N2CCC(OC3CC3)C2=O)cc1NS(=O)(=O)C(F)(F)F (single isomer, unassigned) [Compound 29] by its Corn plant response rating when you get a moment.
Ans: band 3

Q: Hi, small favor: classify Cc1cc(C)c(N2CCC(O)C2=O)cc1NS(=O)(=O)C(F)(F)F (centres unmarked) by its Corn plant response rating when you get a moment.
Ans: band 3

Q: Hi, small favor: classify Cc1cc(C)c(N2CCC(OCC3CCCC3)C2=O)cc1NS(=O)(=O)C(F)(F)F (centres unmarked) by its Corn plant response rating when you get a moment.
Ans: band 1

Q: Hi, small favor: classify Cc1c(NS(=O)(=O)C(F)(F)F)cc(N2CCC(OC3CC3)C2=O)c(C)c1F (centres unmarked) by its Corn plant response rating when you get a moment.
Ans: band 2

Q: Hi, small favor: classify Cc1cc(C)c(N(COC(=O)C(C)(C)C)S(=O)(=O)C(F)(F)F)cc1N1CCC(OCC2CCC2)C1=O (centres unmarked) by its Corn plant response rating when you get a moment.
Ans: band 1

Q: Hi, small favor: classify Cc1cc(C)c(N2CCC(OCC3CCC3(F)F)C2=O)cc1NS(=O)(=O)C(F)(F)F (centres unmarked) by its Corn plant response rating when you get a moment.
Ans: band 1

Q: Hi, small favor: classify CC(=O)N(c1cc(N2CCC(OC3CC3)C2=O)c(C)cc1C)S(=O)(=O)C(F)(F)F (centres unmarked) by its Corn plant response rating when you get a moment.
Ans: band 3

Q: Hi, small favor: classify Cc1c(NS(=O)(=O)C(F)(F)F)cc(N2CCC(OC3CCC3)C2=O)c(C)c1F (centres unmarked) by its Corn plant response rating when you get a moment.
Ans: band 2

Q: Hi, small favor: classify Cc1c(N2CCC(OC3CC3)C2=O)cc(N(COC(=O)C(C)(C)C)S(=O)(=O)C(F)(F)F)c(C)c1F (centres unmarked) by its Corn plant response rating when you get a moment.
Ans: band 2

Q: Hi, small favor: classify Cc1cc(C)c(N2CCC(OCc3ccccc3)C2=O)cc1NS(=O)(=O)C(F)(F)F (centres unmarked) by its Corn plant response rating when you get a moment.
Ans: band 1

Q: Hi, small favor: classify Cc1c(N2CCCC(OC3CCC3)C2=O)cc(N(COC(=O)C(C)(C)C)S(=O)(=O)C(F)(F)F)c(C)c1F (centres unmarked) by its Corn plant response rating when you get a moment.
Ans: band 1

Q: Hi, small favor: classify Cc1cc(C)c(N2CCC(OCC3CC3)C2=O)cc1NS(=O)(=O)C(F)(F)F (centres unmarked) by its Corn plant response rating when you get a moment.
Ans: band 2

Q: Hi, small favor: classify Cc1cc(C)c(N2CCC(OCC3CCC3)C2=O)cc1NS(=O)(=O)C(F)(F)F (centres unmarked) by its Corn plant response rating when you get a moment.
Ans: band 2

Q: Hi, small favor: classify Cc1cc(C)c(N(COC(=O)C(C)(C)C)S(=O)(=O)C(F)(F)F)cc1N1CCC(OCC2CC(F)(F)C2)C1=O (centres unmarked) by its Corn plant response rating when you get a moment.
Ans: band 1

Q: Hi, small favor: classify Cc1c(NS(=O)(=O)C(F)(F)F)cc(N2CCCC(OC3CC3)C2=O)c(C)c1F (centres unmarked) by its Corn plant response rating when you get a moment.
Ans: band 2

Q: Hi, small favor: classify Cc1c(NS(=O)(=O)C(F)(F)F)cc(N2CCCC(OC3CCC3)C2=O)c(C)c1F (centres unmarked) by its Corn plant response rating when you get a moment.
Ans: band 1

Q: Hi, small favor: classify C#CCO/N=C1\CCN(c2cc(NS(=O)(=O)C(F)(F)F)c(C)cc2C)C1=O by its Corn plant response rating when you get a moment.
Ans: band 3

Q: Hi, small favor: classify Cc1cc(C)c(N(C(=O)OC(C)C)S(=O)(=O)C(F)(F)F)cc1N1CCC(OC2CC2)C1=O (centres unmarked) by its Corn plant response rating when you get a moment.
Ans: band 1

Q: Hi, small favor: classify Cc1cc(C)c(N2CCC(OCC3CC3(F)F)C2=O)cc1NS(=O)(=O)C(F)(F)F (centres unmarked) by its Corn plant response rating when you get a moment.
Ans: band 2

Q: Hi, small favor: classify CC(=O)N(c1cc(N2CCC(OC3CC3)C2=O)c(C)cc1Cl)S(=O)(=O)C(F)(F)F (centres unmarked) by its Corn plant response rating when you get a moment.
Ans: band 3
